solubility values, listed per item
protocol_description: physchem
test_settings: organic solvent or mixture, solubility in Anisole

INSERT INTO assay_data (molecule, recorded_result) VALUES
  ('COc1ccc(N(c2ccc(OC)cc2)c2ccc(-c3ccc(N(c4ccc(-c5ccc(N(c6ccc(-c7ccc(N(c8ccc(OC)cc8)c8ccc(OC)cc8)cc7)cc6)c6cc(F)c(OC)c(F)c6)cc5)cc4)c4cc(F)c(OC)c(F)c4)cc3)cc2)cc1', '> 1500 mg/mL');

Now for a further molecule.
*Q* Which solubility is reported for this molecule? COc1ccc(N(c2ccc(C)cc2)c2ccc(-c3ccc(N(c4ccc(OC)cc4)c4ccc(-c5ccc(N(c6ccc(OC)cc6)c6ccc(-c7ccc(N(c8ccc(C)cc8)c8ccc(OC)cc8)cc7)cc6)cc5)cc4)cc3)cc2)cc1
*A* > 400 mg/mL
